# Subject Of Test: SERT (Rattus norvegicus)
# Sequence (P31652 whole entry): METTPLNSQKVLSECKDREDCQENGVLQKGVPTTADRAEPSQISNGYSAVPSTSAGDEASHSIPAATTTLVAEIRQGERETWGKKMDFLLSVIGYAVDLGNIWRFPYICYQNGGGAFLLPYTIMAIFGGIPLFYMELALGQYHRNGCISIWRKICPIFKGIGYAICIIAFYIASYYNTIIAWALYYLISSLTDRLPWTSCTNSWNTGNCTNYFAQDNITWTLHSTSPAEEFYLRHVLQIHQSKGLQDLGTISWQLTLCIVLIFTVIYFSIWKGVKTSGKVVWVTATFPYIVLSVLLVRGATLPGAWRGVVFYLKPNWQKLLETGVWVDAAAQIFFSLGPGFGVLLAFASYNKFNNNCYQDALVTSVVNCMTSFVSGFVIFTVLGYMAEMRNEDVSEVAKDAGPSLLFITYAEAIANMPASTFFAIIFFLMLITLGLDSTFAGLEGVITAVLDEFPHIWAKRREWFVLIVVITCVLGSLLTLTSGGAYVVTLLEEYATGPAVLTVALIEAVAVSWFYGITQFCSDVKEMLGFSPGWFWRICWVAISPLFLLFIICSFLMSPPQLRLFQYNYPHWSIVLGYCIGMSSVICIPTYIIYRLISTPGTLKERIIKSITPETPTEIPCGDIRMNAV
# Protocol Details: SERT uptake, inhibition of [3H]5-HT uptake in rat cerebral cortex
pKi: −log10 of the molar value.
Short version: pKi at least 6 is Fulfilled, less is Not fulfilled.

Compound | Subject Of Test | Class Label
O[C@H](CN1CC[C@H](CCOC(c2ccccc2)c2ccccc2)[C@@H](O)C1)c1ccc(F)cc1 | SERT (Rattus norvegicus) | Fulfilled
O[C@@H]1CN(C[C@H](O)c2ccc(F)cc2)CC[C@H]1CCOC(c1ccccc1)c1ccccc1 | SERT (Rattus norvegicus) | Fulfilled
O[C@H](CN1CC[C@@H](CCOC(c2ccccc2)c2ccccc2)[C@H](O)C1)c1ccccc1 | SERT (Rattus norvegicus) | Fulfilled
O[C@H](CN1CC[C@@H](CCOC(c2ccccc2)c2ccccc2)[C@H](O)C1)c1ccc(F)cc1 | SERT (Rattus norvegicus) | Not fulfilled
O[C@H](CN1CC[C@H](CCOC(c2ccccc2)c2ccccc2)[C@@H](O)C1)c1ccccc1 | SERT (Rattus norvegicus) | Fulfilled
O[C@@H](CN1CC[C@H](CCOC(c2ccccc2)c2ccccc2)[C@@H](O)C1)c1ccccc1 | SERT (Rattus norvegicus) | Fulfilled

* * *

Ki reference
# Subject Of Test: DAT (Rattus norvegicus)
# Protocol Details: DAT uptake, inhibition of [3H]DA uptake in rat striatum
# Format: biochemical

Molecule | Ki
O[C@@H]1CN(C[C@H](O)c2ccccc2)CC[C@H]1CCOC(c1ccccc1)c1ccccc1 [9a′] | 18.4 nM
O[C@@H]1CN(C[C@H](O)c2ccc(F)cc2)CC[C@H]1CCOC(c1ccccc1)c1ccccc1 [9c′] | 2.44 nM
O[C@H](CN1CC[C@H](CCOC(c2ccccc2)c2ccccc2)[C@@H](O)C1)c1ccccc1 [Compound 9b] | 4.69 nM
O[C@@H](CN1CC[C@H](CCOC(c2ccccc2)c2ccccc2)[C@@H](O)C1)c1ccccc1 [Compound 9a] | 6.23 nM
O[C@H](CN1CC[C@H](CCOC(c2ccccc2)c2ccccc2)[C@@H](O)C1)c1ccc(F)cc1 [Compound 9d] | 1.55 nM
O[C@H](CN1CC[C@@H](CCOC(c2ccccc2)c2ccccc2)[C@H](O)C1)c1ccccc1 [9b′] | 1.06 nM
O[C@H](CN1CC[C@@H](CCOC(c2ccccc2)c2ccccc2)[C@H](O)C1)c1ccc(F)cc1 [9d′] | 2.97 nM
O[C@@H](CN1CC[C@H](CCOC(c2ccccc2)c2ccccc2)[C@@H](O)C1)c1ccc(F)cc1 [Compound 9c] | 4.04 nM

* * *

# Tested on: NET
# Protocol Details: NET uptake, inhibition of [3H]NE uptake in rat hippocampus
# Type: biochemical
# Run Parameters: ratio of Ki values
Selectivity ratio NET uptake/DAT uptake reference

Compound | Selectivity ratio NET uptake/DAT uptake
O[C@@H]1CN(C[C@H](O)c2ccc(F)cc2)CC[C@H]1CCOC(c1ccccc1)c1ccccc1 | 10
O[C@H](CN1CC[C@H](CCOC(c2ccccc2)c2ccccc2)[C@@H](O)C1)c1ccc(F)cc1 | 9.1
O[C@@H]1CN(C[C@H](O)c2ccccc2)CC[C@H]1CCOC(c1ccccc1)c1ccccc1 | 1.5
O[C@@H](CN1CC[C@H](CCOC(c2ccccc2)c2ccccc2)[C@@H](O)C1)c1ccc(F)cc1 | 5.4

* * *

Selectivity ratio DAT uptake/DAT binding reference
# Subject Of Test: DAT (Rattus norvegicus, UniProt P23977)
# Sequence (P23977 whole entry): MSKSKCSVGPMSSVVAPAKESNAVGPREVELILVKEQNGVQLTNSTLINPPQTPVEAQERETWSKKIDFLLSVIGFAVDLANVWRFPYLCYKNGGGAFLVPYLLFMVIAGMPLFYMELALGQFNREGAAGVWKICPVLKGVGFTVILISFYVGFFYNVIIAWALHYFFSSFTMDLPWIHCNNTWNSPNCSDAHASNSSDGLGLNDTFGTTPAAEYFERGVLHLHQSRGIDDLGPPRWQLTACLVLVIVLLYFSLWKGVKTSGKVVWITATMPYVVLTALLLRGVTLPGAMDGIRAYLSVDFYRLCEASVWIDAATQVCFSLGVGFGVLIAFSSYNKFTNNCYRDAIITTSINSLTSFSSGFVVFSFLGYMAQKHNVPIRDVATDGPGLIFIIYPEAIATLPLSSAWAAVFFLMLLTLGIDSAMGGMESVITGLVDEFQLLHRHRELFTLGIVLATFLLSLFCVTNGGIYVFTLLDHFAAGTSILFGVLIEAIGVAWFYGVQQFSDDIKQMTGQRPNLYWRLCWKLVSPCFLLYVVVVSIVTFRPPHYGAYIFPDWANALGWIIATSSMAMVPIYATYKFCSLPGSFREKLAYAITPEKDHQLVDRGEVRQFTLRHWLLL
# Protocol Details: DAT uptake, inhibition of [3H]DA uptake in rat striatum
# Assay type: biochemical
# Run Parameters: ratio of Ki values
Outcome Measure: Selectivity ratio DAT uptake/DAT binding

Compound | Quantitative Readout
O[C@@H]1CN(C[C@H](O)c2ccccc2)CC[C@H]1CCOC(c1ccccc1)c1ccccc1 | 0.46
O[C@@H](CN1CC[C@H](CCOC(c2ccccc2)c2ccccc2)[C@@H](O)C1)c1ccc(F)cc1 | 2.0
O[C@H](CN1CC[C@H](CCOC(c2ccccc2)c2ccccc2)[C@@H](O)C1)c1ccc(F)cc1 | 0.59
O[C@H](CN1CC[C@@H](CCOC(c2ccccc2)c2ccccc2)[C@H](O)C1)c1ccccc1 | 2.2
O[C@H](CN1CC[C@H](CCOC(c2ccccc2)c2ccccc2)[C@@H](O)C1)c1ccccc1 | 2.0
O[C@H](CN1CC[C@@H](CCOC(c2ccccc2)c2ccccc2)[C@H](O)C1)c1ccc(F)cc1 | 1.2
O[C@@H](CN1CC[C@H](CCOC(c2ccccc2)c2ccccc2)[C@@H](O)C1)c1ccccc1 | 0.92
